Entry source: patent US20140213531A1

Recorded IC50, one value per entry.
- system_tested: T1, CathepsinG, from human neutrophils (human, UniProt P08311 21-244)
- T1 sequence (looked up): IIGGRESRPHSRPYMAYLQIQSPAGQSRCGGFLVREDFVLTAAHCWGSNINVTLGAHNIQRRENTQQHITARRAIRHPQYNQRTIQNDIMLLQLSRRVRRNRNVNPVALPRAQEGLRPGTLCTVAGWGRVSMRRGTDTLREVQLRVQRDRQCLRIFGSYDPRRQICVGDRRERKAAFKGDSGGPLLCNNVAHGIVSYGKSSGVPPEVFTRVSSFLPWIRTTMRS
- measurement_protocol: cell-based or functional assay
reported_property: IC50 (nmol)

# binder, reported_property, observed_result
rows = [
    ("ICTKSDPPQCR (HELM PEPTIDE1{I.C.T.K.S.D.P.P.Q.C.R.[dP].P}$PEPTIDE1,PEPTIDE1,2:R3-10:R3|PEPTIDE1,PEPTIDE1,1:R1-13:R2$$$V2.0; SMILES CC[C@H](C)[C@@H]1NC(=O)[C@@H]2CCCN2C(=O)[C@H]2CCCN2C(=O)[C@H](CCCNC(=N)N)NC(=O)[C@@H]2CSSC[C@H](NC1=O)C(=O)N[C@@H]([C@@H](C)O)C(=O)N[C@@H](CCCCN)C(=O)N[C@@H](CO)C(=O)N[C@@H](CC(=O)O)C(=O)N1CCC[C@H]1C(=O)N1CCC[C@H]1C(=O)N[C@@H](CCC(N)=O)C(=O)N2) [Example 55]", "IC50", 55),
    ("ICTKSDPPXCR (HELM PEPTIDE1{I.C.T.K.S.D.P.P.[Cha].C.R.[dP].P}$PEPTIDE1,PEPTIDE1,2:R3-10:R3|PEPTIDE1,PEPTIDE1,1:R1-13:R2$$$V2.0; SMILES CC[C@H](C)[C@@H]1NC(=O)[C@@H]2CCCN2C(=O)[C@H]2CCCN2C(=O)[C@H](CCCNC(=N)N)NC(=O)[C@@H]2CSSC[C@H](NC1=O)C(=O)N[C@@H]([C@@H](C)O)C(=O)N[C@@H](CCCCN)C(=O)N[C@@H](CO)C(=O)N[C@@H](CC(=O)O)C(=O)N1CCC[C@H]1C(=O)N1CCC[C@H]1C(=O)N[C@@H](CC1CCCCC1)C(=O)N2) [Example 58]", "IC50", 47.5),
    ("FCTKSDPPXCS (HELM PEPTIDE1{F.C.T.K.S.D.P.P.[Nle].C.S.[dP].P}$PEPTIDE1,PEPTIDE1,2:R3-10:R3|PEPTIDE1,PEPTIDE1,1:R1-13:R2$$$V2.0; SMILES CCCC[C@@H]1NC(=O)[C@@H]2CCCN2C(=O)[C@@H]2CCCN2C(=O)[C@H](CC(=O)O)NC(=O)[C@H](CO)NC(=O)[C@H](CCCCN)NC(=O)[C@H]([C@@H](C)O)NC(=O)[C@@H]2CSSC[C@H](NC1=O)C(=O)N[C@@H](CO)C(=O)N1CCC[C@@H]1C(=O)N1CCC[C@H]1C(=O)N[C@@H](Cc1ccccc1)C(=O)N2) [Example 53]", "IC50", 56),
    ("FCTKSDPPICY (HELM PEPTIDE1{F.C.T.K.S.D.P.P.I.C.Y.[dP].P}$PEPTIDE1,PEPTIDE1,2:R3-10:R3|PEPTIDE1,PEPTIDE1,1:R1-13:R2$$$V2.0; SMILES CC[C@H](C)[C@@H]1NC(=O)[C@@H]2CCCN2C(=O)[C@@H]2CCCN2C(=O)[C@H](CC(=O)O)NC(=O)[C@H](CO)NC(=O)[C@H](CCCCN)NC(=O)[C@H]([C@@H](C)O)NC(=O)[C@@H]2CSSC[C@H](NC1=O)C(=O)N[C@@H](Cc1ccc(O)cc1)C(=O)N1CCC[C@@H]1C(=O)N1CCC[C@H]1C(=O)N[C@@H](Cc1ccccc1)C(=O)N2) [Example 5]", "IC50", 56),
]
